Numbers sourced from ChEMBL document CHEMBL1128621.

Please go through the items and note down their pKi.
Target sequence: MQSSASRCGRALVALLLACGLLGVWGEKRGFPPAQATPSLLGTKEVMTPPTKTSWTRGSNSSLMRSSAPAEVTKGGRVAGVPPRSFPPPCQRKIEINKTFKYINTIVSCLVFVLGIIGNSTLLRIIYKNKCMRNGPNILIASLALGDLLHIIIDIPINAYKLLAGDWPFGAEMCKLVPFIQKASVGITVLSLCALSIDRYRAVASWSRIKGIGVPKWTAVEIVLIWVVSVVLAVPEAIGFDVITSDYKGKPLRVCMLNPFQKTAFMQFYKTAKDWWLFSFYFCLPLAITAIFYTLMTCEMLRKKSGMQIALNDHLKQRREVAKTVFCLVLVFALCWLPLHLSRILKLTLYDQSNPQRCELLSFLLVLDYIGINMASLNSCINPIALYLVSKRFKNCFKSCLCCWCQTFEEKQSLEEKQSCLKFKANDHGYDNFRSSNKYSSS
One number for each entry, as −log10 of the molar value.

Examples with their reported pKi follow.
CCCN1c2ccccc2C(=O)N(CC(=O)O)c2cc(Cc3c[nH]c4ccccc34)ccc21: 4.92
CCCN1c2ccccc2C(=O)N(CC(=O)O)c2cc(NCc3cccc4ccccc34)ccc21: 5.05

Next up:
// pKi lookup, key: O=C(O)CN1C(=O)c2ccccc2Nc2ccc(OCc3cccc4ccccc34)cc21 5.10
